molecular target: Histone deacetylase 7 (Homo sapiens); test: Inhibition of human N-terminal GST tagged HDAC7 (518 to end residues) expressed in baculovirus infected Sf9 insect cells using Boc-Lys(acetyl)-AMC as fluorogenic substrate measured after 1 hr by flourescence plate reader method
Sequence (Q8WUI4 whole entry): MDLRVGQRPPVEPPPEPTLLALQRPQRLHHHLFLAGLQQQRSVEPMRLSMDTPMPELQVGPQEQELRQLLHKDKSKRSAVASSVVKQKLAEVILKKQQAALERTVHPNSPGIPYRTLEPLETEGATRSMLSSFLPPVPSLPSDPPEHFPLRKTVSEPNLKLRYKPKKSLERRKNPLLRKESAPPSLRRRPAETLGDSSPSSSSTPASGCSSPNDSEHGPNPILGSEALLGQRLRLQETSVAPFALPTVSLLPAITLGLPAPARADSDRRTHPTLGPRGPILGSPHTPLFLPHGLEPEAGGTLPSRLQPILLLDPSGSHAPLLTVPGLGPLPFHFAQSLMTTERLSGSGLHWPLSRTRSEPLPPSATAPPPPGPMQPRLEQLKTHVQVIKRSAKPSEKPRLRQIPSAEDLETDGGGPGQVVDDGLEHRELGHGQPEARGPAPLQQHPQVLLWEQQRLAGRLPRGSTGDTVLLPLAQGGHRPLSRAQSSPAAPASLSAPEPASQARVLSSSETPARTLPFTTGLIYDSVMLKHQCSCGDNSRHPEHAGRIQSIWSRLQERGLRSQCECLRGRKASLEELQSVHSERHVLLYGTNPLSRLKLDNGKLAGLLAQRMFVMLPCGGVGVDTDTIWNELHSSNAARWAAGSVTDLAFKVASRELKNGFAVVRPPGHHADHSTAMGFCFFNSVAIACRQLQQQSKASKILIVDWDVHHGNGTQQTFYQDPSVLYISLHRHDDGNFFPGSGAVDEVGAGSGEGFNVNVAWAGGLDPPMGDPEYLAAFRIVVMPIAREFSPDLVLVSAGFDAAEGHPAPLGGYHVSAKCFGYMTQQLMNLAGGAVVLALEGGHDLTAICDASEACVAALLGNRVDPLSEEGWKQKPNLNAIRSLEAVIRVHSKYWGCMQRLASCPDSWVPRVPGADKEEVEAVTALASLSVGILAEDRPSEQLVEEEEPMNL
# IC50 annotations

# count of solved cases: 2
| structure.as.smiles | IC50 |
| --- | --- |
| O=C(CCCSC[C@H](NC(=O)OCc1ccccc1)C(=O)Nc1ccccc1)NO | > 200 nM |
| O=C(CCCSC[C@H](NC(=O)c1ccccc1)C(=O)Nc1ccccc1)NO | > 200 nM |

Switching to the query record.
For the molecule `O=C(CCCSC[C@H](NC(=O)OCc1ccccc1)C(=O)Nc1cccc2ccccc12)NO` , the measured IC50 on Histone deacetylase 7 (Homo sapiens) was > 200 nM
